Assembled from different publications: Ki for 5-hydroxytryptamine receptor 7 (Homo sapiens, UniProt P34969).
Write it as a number; the unit nM goes unstated.

Recorded Ki of CC(=O)c1ccc(OCC(O)CN2CCN(c3ccccc3)CC2)cc1 (stereo not given) , please.
1970

// query: CC(=O)c1ccc(OCC(O)CN2CCN(c3cccc(Cl)c3)CC2)cc1 (stereo not given)
471

// query: "CCOc1ccccc1N1CCN(CCCCCn2cnc3sc(C)c(C)c3c2=O)CC1"
1.03

// query: "CNc1nc(NCc2ccc(NS(C)(=O)=O)cc2Cl)cc(-c2ccccn2)n1"
803

// query: "CN1CCN(c2ccc(Nc3c4ccccc4nc4ccccc34)cc2)CC1"
414

// query: "O=S1(=O)c2cccc3cccc(c23)N1CCCN1CCN(c2ccc(F)cc2)CC1"
744

// query: "S=C(NCCCc1c[nH]cn1)NCCCN(Cc1ccc(Cl)c(Cl)c1)c1ccc(Br)cn1"
1540

// query: "COc1ccccc1N1CCN(CCCCNC(=O)c2ccc3ccccc3c2)CC1"
29.8

// query: "O=S(=O)(c1cccc(N2CCNCC2)c1)n1cccc1-c1ccccc1"
12300

// query: CCC(=O)N1c2ccccc2CC1C(=O)NCCCN1CCN(c2ccccc2)CC1 (stereo not given)
7130

// query: CSc1ccccc1N1CCN(CCCCCC(=O)NC2CCCc3ccccc32)CC1 (stereo not given)
52.7

// query: "O=S(=O)(c1cccc(N2CCNCC2)c1)n1cccc1-c1cccc(F)c1"
11500

// query: "COC(=O)C1=C(C)NC(C)=C(C(=O)OCCCN2CCC(c3ccccc3)(c3ccccc3)CC2)[C@H]1c1cccc([N+](=O)[O-])c1"
313

// query: "Clc1cccc(COc2cncc(N3CCNCC3)n2)c1"
556

// query: COc1ccc(OC)c(COCC(O)CN2CCN(c3ccccc3)CC2)c1 (stereo not given)
2300
